# tested target: T1, insulin (UniProt P01308 25-54; P01308 90-110, limits assumed)
# T1 construct: Mature insulin has two chains (A and B) from one precursor; also called b-insulin
# T1 sequence (P01308 25-54 limits assumed, form in doubt, chain 1 of 2): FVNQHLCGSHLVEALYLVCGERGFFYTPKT
# T1 sequence (P01308 90-110 limits assumed, form in doubt, chain 2 of 2): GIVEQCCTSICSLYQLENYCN
# assay text: SPR, Biacore T200; target immobilized on CM5, His6-tagged Y variant injected; 1:1 Langmuir
measured property: Kd (nM)

{"binder": "Y00267 (designed binder, Y00032 with A19E) MGSSHHHHHHGSSLAEAKEAAIAELDSKGVGEYQKSFIELAKSVEHVELLKEAILADLP", "measured property": "Kd", "unit abbreviation": "nM", "value observed": 59}
{"binder": "Y00310 (designed binder, From library Ylib002Naive.I) MGSSHHHHHHGSSLAEAKEAAIAELDSKGVGAYQIKFIQIAHTVEEVQLMKQAILADLPA", "measured property": "Kd", "unit abbreviation": "nM", "value observed": 37}
{"binder": "Y00269 (designed binder, Y00032 with S23K) MGSSHHHHHHGSSLAEAKEAAIAELDSKGVGAYQKKFIELAKSVEHVELLKEAILADLP", "measured property": "Kd", "unit abbreviation": "nM", "value observed": 390}
{"binder": "Y02711 (designed binder, Y00358 with Q26E) MGSSHHHHHHGSSLAEAKEAAIAELDSKGVGAAKIKWIEDAKSVETVQFLKQAILAELPA", "measured property": "Kd", "unit abbreviation": "nM", "value observed": 54}
{"binder": "Y00264 (designed binder, Y00032 with K15Y) MGSSHHHHHHGSSLAEAKEAAIAELDSYGVGAYQKSFIELAKSVEHVELLKEAILADLP", "measured property": "Kd", "unit abbreviation": "nM", "value observed": 64}
{"binder": "Y00273 (designed binder, Y00032 with E32Q) MGSSHHHHHHGSSLAEAKEAAIAELDSKGVGAYQKSFIELAKSVQHVELLKEAILADLP", "measured property": "Kd", "unit abbreviation": "nM", "value observed": 77}
{"binder": "Y02717 (designed binder, Y00310 with K15Y + Q26E) MGSSHHHHHHGSSLAEAKEAAIAELDSYGVGAYQIKFIEIAHTVEEVQLMKQAILADLPA", "measured property": "Kd", "unit abbreviation": "nM", "value observed": 610}
{"binder": "Y00271 (designed binder, Y00032 with E26Q) MGSSHHHHHHGSSLAEAKEAAIAELDSKGVGAYQKSFIQLAKSVEHVELLKEAILADLP", "measured property": "Kd", "unit abbreviation": "nM", "value observed": 47}
{"binder": "Y00266 (designed binder, Y00032 with G18S) MGSSHHHHHHGSSLAEAKEAAIAELDSKGVSAYQKSFIELAKSVEHVELLKEAILADLP", "measured property": "Kd", "unit abbreviation": "nM", "value observed": 56}
{"binder": "Y02716 (designed binder, Y00301 with K15Y + Q26E) MGSSHHHHHHGSSLAEAKEAAIAELDSYGVGARQIKWIEQAKSVEVVQWLKQAILADLPA", "measured property": "Kd", "unit abbreviation": "nM", "value observed": 7.6}
{"binder": "Y00032 (designed binder) MGSSHHHHHHGSSLAEAKEAAIAELDSKGVGAYQKSFIELAKSVEHVELLKEAILADLPASGSVD", "measured property": "Kd", "unit abbreviation": "nM", "value observed": 50}

// provenance: patent US20210047372A1
